- Tested System: recombinant human adrenergic beta 1 receptors (Homo sapiens)
- Construct: purchased Euroscreen
- Sequence (P08588 whole entry): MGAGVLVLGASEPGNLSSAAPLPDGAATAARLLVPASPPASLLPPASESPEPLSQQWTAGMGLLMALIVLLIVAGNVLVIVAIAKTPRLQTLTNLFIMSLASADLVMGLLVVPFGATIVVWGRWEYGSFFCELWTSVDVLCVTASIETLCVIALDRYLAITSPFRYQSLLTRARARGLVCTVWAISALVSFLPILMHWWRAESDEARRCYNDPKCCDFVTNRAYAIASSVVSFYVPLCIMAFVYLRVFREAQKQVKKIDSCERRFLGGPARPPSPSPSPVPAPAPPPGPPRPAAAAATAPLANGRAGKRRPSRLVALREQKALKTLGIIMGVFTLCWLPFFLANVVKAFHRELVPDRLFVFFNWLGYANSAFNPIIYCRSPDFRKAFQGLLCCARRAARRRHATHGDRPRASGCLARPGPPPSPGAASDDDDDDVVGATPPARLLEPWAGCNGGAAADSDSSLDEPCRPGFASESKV
- Test Details: Adrenergic β1 selectivity assay, [125I]-Iodocyanopindolol binding to membranes
- Test Settings: inhibition of [125I]-Iodocyanopindolol binding, read-out: β1 bind pIC50 (converted)
Structures can show the parent of a compound that is named as a salt.
Readout: IC50

Below are worked cases with known answers.
CC[C@@H](C)N(CCNCCc1ccc(O)c2[nH]c(=O)ccc12)C(=O)CCOCCc1ccccc1.Cl [Example 79, hydrochloride] : > 10 µM
O=C1COc2c(CCNCCN(C(=O)CCOCCc3cccc(F)c3)C3CCCCC3)ccc(O)c2N1 [Example 74, trifluoroacetate] : 2.51 µM

// lookup IC50 | system=recombinant human adrenergic beta 1 receptors (Homo sapiens) | key= O=C1COc2c(CCNCCN(C(=O)CCNCCc3cccc(F)c3F)C3CCCCC3)ccc(O)c2N1 [Example 36, bis(trifluoroacetate)]
3.16 µM

====

Field: IC50. Provide a value for each of the compounds that follow.
- Tested System: recombinant human Dopamine Subtype D2s receptors (Homo sapiens)
- Construct: purchased Perkin Elmer
- Sequence (P14416 1-414 isoform P14416-2): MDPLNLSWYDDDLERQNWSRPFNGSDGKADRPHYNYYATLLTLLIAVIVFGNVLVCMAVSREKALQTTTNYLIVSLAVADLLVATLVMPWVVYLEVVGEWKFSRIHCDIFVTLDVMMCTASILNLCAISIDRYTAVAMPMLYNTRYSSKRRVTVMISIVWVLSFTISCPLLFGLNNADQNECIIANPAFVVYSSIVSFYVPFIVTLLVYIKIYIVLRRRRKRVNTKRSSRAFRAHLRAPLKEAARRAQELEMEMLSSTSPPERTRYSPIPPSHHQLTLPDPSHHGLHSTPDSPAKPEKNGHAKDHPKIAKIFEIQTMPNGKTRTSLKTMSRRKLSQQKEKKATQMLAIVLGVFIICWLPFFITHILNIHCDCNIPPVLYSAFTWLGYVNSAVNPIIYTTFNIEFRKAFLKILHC
- Test Details: Dopamine D2 selectivity assay, [3H]-spiperone binding to membranes
- Test Settings: inhibition of [3H]-spiperone binding, read-out: D2 bind pIC50 (converted)
Where a name gives a salt, the structure may show the parent alone.
Numbers only, in nM.

Below are worked cases with known answers.
O=C1COc2c(CCNCCN(C(=O)CCNCCc3cc(F)cc(Cl)c3)C3CCCCCC3)ccc(O)c2N1 [Example 66, bis(trifluoroacetate)] : 39.8
O=C1COc2c(CCNCCN(C(=O)CCNCCc3ccc(Cl)cc3)C3CCCCC3)ccc(O)c2N1 [Example 32, bis(trifluoroacetate)] : 200
O=C1COc2c(CCNCCN(C(=O)CCNCCc3ccc(Cl)c(Cl)c3)C3CCCCCC3)ccc(O)c2N1 [Example 26, bis(trifluoroacetate)] : 31.6
O=C1COc2c(CCNCCN(C(=O)CCNCCc3ccc(F)c(Cl)c3)C3CCCCC3)ccc(O)c2N1 [Example 37, bis(trifluoroacetate)] : 100
O=C1COc2c(CCNCCN(C(=O)CCOCCc3ccccc3)C3CCCCC3)ccc(O)c2N1 [Example 70, trifluoroacetate] : 1000

Kindly review the next compound as well.
Fill blank: measured IC50 of the compound CC(C)[C@@H](C)N(CCNCCc1ccc(O)c2c1OCC(=O)N2)C(=O)CCNCCc1ccc(Cl)c(Cl)c1 [Example 59, dihydrochloride] is ____.
100

====

Field: EC50. Provide a value for each of the molecules that follow.
- Tested System: Adrenergic β2 (Homo sapiens)
- Construct: Adherent H292 cells were removed from tissue culture flasks; endogenous in cells; host or cells: H292 cells
- Sequence (P07550 whole entry): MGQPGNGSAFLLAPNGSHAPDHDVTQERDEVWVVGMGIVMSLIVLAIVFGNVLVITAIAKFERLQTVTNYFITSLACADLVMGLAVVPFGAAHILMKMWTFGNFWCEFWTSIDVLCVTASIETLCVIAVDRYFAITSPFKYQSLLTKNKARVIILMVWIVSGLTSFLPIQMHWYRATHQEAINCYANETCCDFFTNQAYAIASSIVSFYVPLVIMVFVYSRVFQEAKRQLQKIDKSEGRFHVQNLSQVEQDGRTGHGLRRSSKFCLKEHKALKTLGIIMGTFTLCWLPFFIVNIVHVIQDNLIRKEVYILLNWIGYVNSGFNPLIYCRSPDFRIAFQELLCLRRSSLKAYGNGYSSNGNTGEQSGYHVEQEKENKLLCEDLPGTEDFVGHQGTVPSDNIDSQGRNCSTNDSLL
- Test Details: Adrenergic β2 mediated cAMP production in H292 cells (AlphaScreen cAMP detection)
- Assay type: cell-based
- Test Settings: cAMP production, 60 minutes at room temperature, 300 μM rolipram, read-out: β2 pEC50 (converted)
Answers are plain numbers, in nM.

Provide EC50 for all items below, preserving their order.
1. O=C1COc2c(CCNCCN(C(=O)CCNCCc3ccc(Cl)c(Cl)c3)C3CCCCCC3)ccc(O)c2N1 [Example 26, bis(trifluoroacetate)]
2. O=C1COc2c(CCNCCN(C(=O)CCNCCc3ccc(Cl)cc3)C3CCCCC3)ccc(O)c2N1 [Example 32, bis(trifluoroacetate)]
3. O=C1COc2c(CCNCCN(C(=O)CCNCCc3cc(F)cc(Cl)c3)C3CCCCC3)ccc(O)c2N1 [Example 41, (trifluoroacetate)]
4. CCCC[C@@H](C)N(CCNCCc1ccc(O)c2c1OCC(=O)N2)C(=O)CCNCCc1cc(C)ccc1F [Example 56, bis(trifluoroacetate)]
5. O=C1COc2c(CCNCCN(C(=O)CCNCCc3cc(F)cc(F)c3)C3CCCCC3)ccc(O)c2N1 [Example 35, bis(trifluoroacetate)]

2.51
3.16
3.16
7.94
1.58

Fill blank: measured EC50 of the molecule O=C(CCNCCc1cccc(Cl)c1)N(CCNCCc1ccc(O)c2[nH]c(=O)ccc12)C1CCCCCC1 [Example 3, bis(trifluoroacetate)] is ____.
7.94
